For each record, write down the corresponding max response.
# Tested on: HaCat
# ASSAY INFO: Cytotoxic Profiling of Annotated Libraries Using Quantitative High-Throughput Screening (AID 1296008); note: % is set by controls: 0 for no effect and ±100 for the full control effect; nearly all actives have a fitted effect of over 60% in size
# RECORDED CONDITIONS: Five cell lines viability, CellTiter-Glo ATP luminescence, 48-72 h; hits give low values
Records with an inconclusive call do not appear.
Supply the numeric figure in %, leaving out any unit text.

Inquiry: I'd like to know its max response. The compound in question is `COc1cc(O)c2c(c1)/C=C/C[C@@H](O)[C@@H](O)C(=O)CCC[C@H](C)OC2=O`
Reply text: -18.3

Inquiry: // repeat for `CCOc1ccc(Oc2ccc(OCc3cc(F)ccc3F)cc2)c(N)c1` and report
Reply text: -5.94

Inquiry: // repeat for `COc1cc2c(c(OC)c1OC)-c1ccc(SC)c(=O)cc1[C@@H](NC(C)=O)CC2` and report
Reply text: 4.59

Inquiry: // repeat for `c1cncc(OC[C@@H]2CCN2)c1` and report
Reply text: 0.624

Inquiry: // repeat for CN1CCc2cc3c(cc2C1C1OC(=O)c2c1ccc1c2OCO1)OCO3 (stereo not drawn) and report
Reply text: -1.45

Inquiry: // repeat for `C=C1CC[C@H]2[C@@H](/C=C(\C)C(=O)[C@@]3(OC(C)=O)C[C@H](C)[C@H](OC(=O)c4ccccc4)[C@@H]3[C@H]1OC(C)=O)C2(C)C` and report
Reply text: -1.11

Inquiry: // repeat for `CCCCCn1cc(C(=O)Oc2cccc3cccnc23)c2ccccc21` and report
Reply text: 2.86

Inquiry: // repeat for CC1=CC2/C=C(\C)CCCC(O)/C=C/C(=O)OC23C(=O)NC(CC(C)C)C3C1C (stereo not drawn) and report
Reply text: -3.87

Inquiry: // repeat for `C[C@]12CC[C@H]3[C@@H](CCC4=C/C(=N/OCC(=O)O)CC[C@@]43C)[C@@H]1CC[C@@H]2O` and report
Reply text: -24.1

Inquiry: // repeat for `C[C@H]1CN(CC[C@H](O)C2CCCCC2)CC[C@@]1(C)c1cccc(O)c1` and report
Reply text: 3.77

Inquiry: // repeat for `C=C1C(=O)O[C@@H]2[C@H]3C(=C)[C@@H](O)C[C@H]3C(=C)C[C@@H](O)[C@@H]12` and report
Reply text: -4.6

Inquiry: // repeat for `Cc1c(N[C@@H](c2nnc(-c3ccc(C#N)cc3)o2)[C@H](C)O)ccc(C#N)c1Cl` and report
Reply text: -11

Inquiry: // repeat for `CN1C(=O)CN=C(c2ccccc2Cl)c2cc(Cl)ccc21` and report
Reply text: 2.59

Inquiry: // repeat for `O=C1CN=C(c2ccccc2Cl)c2cc(Br)ccc2N1` and report
Reply text: -40.1

Inquiry: // repeat for `C=C(CO)C(=O)O[C@H]1CC(=C)[C@@H]2C[C@H](O)C(=C)[C@@H]2[C@H]2OC(=O)C(=C)[C@@H]21` and report
Reply text: 4.94

Inquiry: // repeat for OC(CNc1ccccc1)Cn1c2ccc(Br)cc2c2cc(Br)ccc21 (stereo not drawn) and report
Reply text: -16

Inquiry: // repeat for `c1ccc(C2(c3ccccc3)OC[C@@H]([C@H]3CCCCN3)O2)cc1` and report
Reply text: 4.38

Inquiry: // repeat for `C[C@]12CC[C@H](O[C@@H]3O[C@H](CO)[C@@H](O)[C@H](O)[C@H]3O[C@@H]3O[C@H](CO)[C@@H](O)[C@H](O)[C@H]3O)CC1=CC[C@@H]1[C@@H]2CC[C@]2(C)[C@@H](C3=CC(=O)OC3)CC[C@]12O` and report
Reply text: -17
